Reported EC50 values for the following compounds.
biological target: DGKα-YFP in Jurkat cells (Homo sapiens (Human), UniProt P23743); experiment: In vitro DGKα translocation assay; settings: 1 hour at 37° C., top concentration 10 μM, read-out: DGKalpha Translocation EC50
Sequence (P23743 whole entry): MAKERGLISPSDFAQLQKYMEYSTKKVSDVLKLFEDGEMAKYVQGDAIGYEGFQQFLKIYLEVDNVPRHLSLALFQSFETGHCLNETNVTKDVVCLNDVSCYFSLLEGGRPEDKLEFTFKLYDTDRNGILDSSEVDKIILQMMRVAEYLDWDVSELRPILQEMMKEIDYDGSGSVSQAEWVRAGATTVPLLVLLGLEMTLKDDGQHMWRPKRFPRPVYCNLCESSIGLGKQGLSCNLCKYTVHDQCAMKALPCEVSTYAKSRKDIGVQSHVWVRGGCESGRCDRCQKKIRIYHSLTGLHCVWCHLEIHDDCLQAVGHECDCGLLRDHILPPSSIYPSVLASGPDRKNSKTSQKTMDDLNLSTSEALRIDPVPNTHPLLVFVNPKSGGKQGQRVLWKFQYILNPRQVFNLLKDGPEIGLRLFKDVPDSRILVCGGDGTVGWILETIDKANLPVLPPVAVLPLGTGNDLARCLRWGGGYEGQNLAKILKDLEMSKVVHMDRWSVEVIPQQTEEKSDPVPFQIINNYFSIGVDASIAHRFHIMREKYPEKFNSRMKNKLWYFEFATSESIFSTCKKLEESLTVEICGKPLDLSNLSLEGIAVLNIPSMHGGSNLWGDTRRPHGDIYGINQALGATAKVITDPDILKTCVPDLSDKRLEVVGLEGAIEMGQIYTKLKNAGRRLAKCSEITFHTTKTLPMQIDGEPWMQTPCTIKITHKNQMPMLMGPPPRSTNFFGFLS

A selection of reference data follows.
CN(Cc1nnnn1-c1cccc(F)c1)C1CCCCC1 [Example 19]; > 5 µM
N#Cc1cc(-n2nnnc2CN(CCO)C2CCCCC2)ccc1Cl [Example 7]; > 10 µM
CC(C)N(C)Cc1nnnn1-c1ccc(Cl)c(C#N)c1 [Example 11]; > 10 µM
CN(Cc1nnnn1-c1ccc(C(F)(F)F)nc1)C1CCCCC1 [Example 23]; > 5 µM
CCN(Cc1nnnn1-c1ccc(Cl)c(C#N)n1)C1CCCCC1 [Example 16]; > 10 µM

[Q] Recorded EC50 for CC(C)N(Cc1nnnn1-c1ccc(Cl)c(C#N)c1)C1CCCCC1 [Example 12] with DGKα-YFP in Jurkat cells (Homo sapiens (Human), UniProt P23743), please?
[A] 1.7 µM

[Q] Recorded EC50 for CC(C)CN(C)Cc1nnnn1-c1ccc(Cl)c(C#N)c1 [Example 9] with DGKα-YFP in Jurkat cells (Homo sapiens (Human), UniProt P23743), please?
[A] 1.2 µM

[Q] Recorded EC50 for CN(Cc1nnnn1-c1ccc(Cl)cc1)C1CCCCC1 [Example 29] with DGKα-YFP in Jurkat cells (Homo sapiens (Human), UniProt P23743), please?
[A] 0.57 µM

[Q] Recorded EC50 for CN(Cc1nnnn1-c1ccc(Cl)cc1C#N)C1CCCCC1 [Example 30] with DGKα-YFP in Jurkat cells (Homo sapiens (Human), UniProt P23743), please?
[A] > 10 µM
